The values you see were collected from PubChem BioAssay (NCI).

# System: MCF7 breast
# Test details: NCI tumour cell line growth inhibition, 48 h
Entries annotated with measured log10 of TGI
Values are log10 of TGI in µM.

Recorded log10 of TGI, per entry:
In: Name the reported log10 of TGI value associated with the compound `O=C(Cn1c(C(=O)/C=C/c2ccc(Cl)c(Cl)c2)nc2ccccc21)c1ccccc1`
Out: 1.91

In: Name the reported log10 of TGI value associated with the compound CCOC1OC(CO[Si](C)(C)C(C)(C)C)C(O)CC1n1ccc(=O)[nH]c1=O (stereo unspecified)
Out: 1.95

In: Name the reported log10 of TGI value associated with the compound `Cc1ccccc1-n1c(=O)nc2n(-c3ccc(C(C)(C)C)cc3)c3ccccc3cc-2c1=O`
Out: 1.78

API: the following record is the query input.
In: Name the reported log10 of TGI value associated with the compound `NC(=O)c1c(NC(=O)c2ccc(C(F)(F)F)cc2Cl)sc2c1CCC(=O)C2`
Out: 0.61

----------
# Tested on: UO-31 renal
# Test details: NCI tumour cell line growth inhibition, 48 h
Entries annotated with measured TGI

Recorded TGI, per entry:
In: Name the reported TGI value associated with the molecule CCc1cn(C2CC(CO)C(CO)S2)c(=O)[nH]c1=O (stereo unspecified)
Out: > 100 µM

In: Name the reported TGI value associated with the molecule `CCC(=O)NC(NNS(=O)(=O)c1ccc(C)cc1)(C(F)(F)F)C(F)(F)F`
Out: > 100 µM

In: Name the reported TGI value associated with the molecule `COc1ccc(C)cc1NC(=S)N/N=C/c1ccco1`
Out: > 100 µM

In: Name the reported TGI value associated with the molecule C[C@H]1CCC/C=C/[C@@H]2C[C@H](O)C[C@H]2[C@H](O)C(O)C(O)C(=O)O1 (stereo partly specified)
Out: > 76.1 µM

In: Name the reported TGI value associated with the molecule `c1ccc(Nc2nnc(-c3ccccc3Nc3ccccc3-c3nnc(Nc4ccccc4)s3)s2)cc1`
Out: > 100 µM

API: the following record is the query input.
In: Name the reported TGI value associated with the molecule CCOC1OC(CO[Si](C)(C)C(C)(C)C)C(O)CC1n1ccc(=O)[nH]c1=O (stereo unspecified)
Out: > 100 µM

----------
# Tested on: OVCAR-5 ovarian
# Test details: NCI tumour cell line growth inhibition, 48 h
Observed property: TGI

In: Please state recorded TGI (tested on OVCAR-5 ovarian) of CC(=O)OC1C(C)OC(Oc2c(-c3ccc(O)cc3)oc3cc(O)cc(O)c3c2=O)C(O)C1OC(C)=O (stereo not drawn)
Out: > 100 µM

Continuing:
In: Please state recorded TGI (tested on OVCAR-5 ovarian) of COc1cc(C(C)c2cc3c(cc2OCCCCCOc2cc4c(cc2C(C)c2cc(OC)c(OC)c(OC)c2)OCO4)OCO3)cc(OC)c1OC (stereo not drawn)
Out: > 100 µM

In: Please state recorded TGI (tested on OVCAR-5 ovarian) of `CCOC(=O)c1c(C)n(Cc2ccc(Cl)cc2Cl)c2c1cc(O)c1[nH]c(Cc3ccccc3)nc12`
Out: 9.36 µM

----------
# System: NCI-H522 lung
# Test details: NCI tumour cell line growth inhibition, 48 h; in the data active means GI50 below about 0.43 µM; inactive means the rest
API: response.call in T = active, F = inactive

In: So what was the verdict on `COc1cccc(/C=C2\COc3ccc(O)c(O)c3C2=O)c1OC` in this test?
Out: T

In: So what was the verdict on `O=C(Nc1cccc2[nH]c(C(F)(F)F)nc12)c1ccc(Br)cc1F` in this test?
Out: F

In: So what was the verdict on `O=C1C=CC(=O)N1c1ccc2ccccc2c1` in this test?
Out: F

In: So what was the verdict on COc1cc(/C=C2\CC3C4CC=C5C[C@@H](N6CCCC6)CC[C@]5(C)C4CC[C@]3(C)[C@H]2OC(C)=O)ccc1OCCCn1ccnc1 (some centres undefined) in this test?
Out: F
